Catalogue of Imax readings, one per entry.
# TARGET: D(1A) dopamine receptor (Homo sapiens)
# Sequence (P21728 whole entry): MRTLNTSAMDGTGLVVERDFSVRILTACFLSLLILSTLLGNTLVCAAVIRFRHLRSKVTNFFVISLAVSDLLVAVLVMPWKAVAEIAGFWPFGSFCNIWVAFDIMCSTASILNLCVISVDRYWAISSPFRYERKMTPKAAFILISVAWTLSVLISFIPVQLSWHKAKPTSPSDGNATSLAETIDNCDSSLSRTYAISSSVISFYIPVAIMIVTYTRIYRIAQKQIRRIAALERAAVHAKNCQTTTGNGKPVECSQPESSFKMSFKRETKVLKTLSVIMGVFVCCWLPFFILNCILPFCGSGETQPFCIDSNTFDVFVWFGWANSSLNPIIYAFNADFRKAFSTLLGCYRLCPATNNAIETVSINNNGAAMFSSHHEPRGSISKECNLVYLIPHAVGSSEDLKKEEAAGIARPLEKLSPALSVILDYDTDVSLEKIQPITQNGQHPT
# PROTOCOL_TEXT: Antagonist activity at dopamine D1 receptor assessed as inhibition of [35S]GTPgammaS binding in cell-based assay relative to control
# Assay type: functional

{"STRUCTURE_NOTATION": "COc1cc2c(c(OC)c1)CN1CCc3cc(OC)c(O)cc3[C@@H]1C2", "Imax": "94.3%"}
{"STRUCTURE_NOTATION": "CN1CCc2cc(Cl)c(O)cc2[C@@H](c2ccccc2)C1", "Imax": "80%"}
{"STRUCTURE_NOTATION": "COc1cc2c(c(OC)c1)CN1CCc3cc(OC)cc(OC)c3[C@@H]1C2", "Imax": "94.2%"}
{"STRUCTURE_NOTATION": "COc1cc2c(c(OC)c1)CN1CCc3cc(OC)c(OC)c(OC)c3[C@@H]1C2", "Imax": "82.5%"}
